ASSAYED_TARGET: human motilin receptor (Homo sapiens, UniProt O43193)
Sequence (O43193 whole entry): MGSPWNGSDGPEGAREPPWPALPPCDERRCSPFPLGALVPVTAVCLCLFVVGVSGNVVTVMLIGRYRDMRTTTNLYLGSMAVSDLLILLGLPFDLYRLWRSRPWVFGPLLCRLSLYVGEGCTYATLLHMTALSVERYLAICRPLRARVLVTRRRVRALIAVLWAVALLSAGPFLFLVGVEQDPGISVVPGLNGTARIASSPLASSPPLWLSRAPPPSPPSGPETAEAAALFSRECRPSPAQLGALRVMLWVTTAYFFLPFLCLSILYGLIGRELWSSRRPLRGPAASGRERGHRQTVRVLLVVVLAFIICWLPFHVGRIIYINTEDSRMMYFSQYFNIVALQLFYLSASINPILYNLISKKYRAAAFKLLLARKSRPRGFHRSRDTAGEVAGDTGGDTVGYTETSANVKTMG
PROCEDURE_TEXT: Competitive radioligand binding assay (Method B1)
Design: purchased PerkinElmer 6110544; host or cells: CHO cells, stably transfected (membranes)
ASSAY_CONTEXT: Radioligand competitive binding assay, Method B1; values reported as ranges; read-out: Ki (binding activity)
pKi: −log10 of the molar value.
Measured pKi accompanies every entry in the list below.

Worked cases, pKi given:
CC(C)C[C@@H]1NC(=O)[C@@H](C(C)C)NC(=O)[C@@H](Cc2cccc(Cl)c2)NCCOc2ccccc2CCCNC1=O [Compound 131]	7.00 to 9.00
CCCC1NC(=O)C(C(C)C)NC(=O)C(Cc2ccc(O)cc2)NCCOc2ccccc2C=CCNC1=O (stereo not drawn) [Compound 85]	6.00 to 7.00
CCCC1NC(=O)C(C(C)C)NC(=O)C(Cc2ccccn2)NCCOc2ccccc2CCCNC1=O (stereo not drawn) [Compound 123]	6.00 to 7.00
CCCCC1NC(=O)C(C(C)C)NC(=O)C(Cc2ccc(O)cc2)NCCOc2ccccc2C=CCNC1=O (stereo not drawn) [Compound 7]	6.00 to 7.00
CCCC1NC(=O)C(C(C)C)NC(=O)C(Cc2ccc(OC(C)(C)C)cc2)NCCOc2ccccc2CCCNC1=O (stereo not drawn) [Compound 88]	5.00 to 6.00
CCCC1NC(=O)C(Cc2ccc3ccccc3c2)NC(=O)C(Cc2ccc(O)cc2)NCCOc2ccccc2C=CCNC1=O (stereo not drawn) [Compound 76]	5.00 to 6.00

Report pKi for CCCC1NC(=O)C(C(C)C)NC(=O)C(Cc2ccc(O)cc2)NCCCNCCNC1=O (stereo not drawn) [Compound 98] tested on human motilin receptor (Homo sapiens, UniProt O43193).
5.00 to 6.00

CCC(C)C1NC(=O)C(C(C)C)NC(=O)C(Cc2ccc(O)cc2)NCCOc2ccccc2C=CCNC1=O (stereo not drawn) [Compound 80] ?
6.00 to 7.00

Here is the next compound: CC(C)CC1NC(=O)C(C(C)C)NC(=O)C(Cc2ccc(Cl)cc2)NCCOc2cccnc2CCCNC1=O (stereo not drawn) [Compound 139]
6.00 to 7.00

And CCCC1NC(=O)C(C(C)C)NC(=O)C(C(c2ccccc2)c2ccccc2)NCCOc2ccccc2CCCNC1=O (stereo not drawn) [Compound 90] ?
5.00 to 6.00

And then CSCCC1NC(=O)C(C(C)C)NC(=O)C(Cc2ccc(O)cc2)NCCOc2ccccc2C=CCNC1=O (stereo not drawn) [Compound 6] , what is it?
6.00 to 7.00

CC(C)[C@H]1NC(=O)[C@@H](Cc2ccc(Cl)cc2)NCCOc2ccccc2CCCNC(=O)[C@H](CC2CC2)NC1=O [Compound 145] ?
7.00 to 9.00

CCCC1NC(=O)C(C(C)C)NC(=O)C(Cc2c[nH]cn2)NCc2ccccc2Sc2ccccc2CNC1=O (stereo not drawn) [Compound 127] ?
6.00 to 7.00

Continue with CC(C)C[C@@H]1NC(=O)[C@@H](C(C)C)NC(=O)[C@@H](Cc2ccc3ccccc3c2)NCCOc2ccccc2CCCNC1=O [Compound 14]
6.00 to 7.00

Entry CC(C)C1NC(=O)C(Cc2ccc(F)cc2)NCCOc2ccccc2CCCNC(=O)C(CN)NC1=O (stereo not drawn) [Compound 157] please
6.00 to 7.00

* * *

ASSAYED_TARGET: human motilin receptor (Homo sapiens)
PROCEDURE_TEXT: Competitive radioligand binding assay (Method B1)
Set-up: purchased PerkinElmer 6110544; host or cells: CHO cells, stably transfected (membranes)
ASSAY_CONTEXT: Radioligand competitive binding assay, Method B1; values reported as ranges; read-out: Ki (binding activity)
Listing of entries alongside the reported Ki.

Consider the compound shown here: CCCC1NC(=O)C(C(C)C)NC(=O)C(Cc2ccccc2OC)NCCOc2ccccc2CCCNC1=O (stereo not drawn) What is its recorded Ki?
0.1 to 1 µM

And the next one, CCCC1NC(=O)C(C(C)C)NC(=O)C(Cc2cscn2)NCCOc2ccccc2CCCNC1=O (stereo not drawn) ?
0.1 to 1 µM

// repeat for CCCC1NC(=O)C(C(C)(C)C)NC(=O)C(Cc2ccc(O)cc2)NCCOc2ccccc2CCCNC1=O (stereo not drawn) and report
0.1 to 1 µM

Param item: COc1ccc(C[C@H]2NCCOc3ccccc3CCCNC(=O)[C@H](CC(C)C)NC(=O)[C@@H](C(C)C)NC2=O)cc1
0.1 to 1 µM

Try the compound CC(C)C1NC(=O)C(Cc2ccc(O)cc2)NCCOc2ccccc2C=CCNC(=O)C(CCCN)NC1=O (stereo not drawn)
0.1 to 1 µM

Proceed to CCCC1NC(=O)C(CCC)NC(=O)C(Cc2ccc(O)cc2)NCCOc2ccccc2CCCNC1=O (stereo not drawn)
1 to 10 µM

* * *

ASSAYED_TARGET: UniProtKB O43193
PROCEDURE_TEXT: Competitive radioligand binding assay (Method B1)
Parameters: purchased PerkinElmer 6110544; host or cells: CHO cells, stably transfected (membranes)
ASSAY_CONTEXT: Radioligand competitive binding assay, Method B1; values reported as ranges; read-out: Ki (binding activity)
Experimental: Competitive Radioligand Binding Assay (Motilin Receptor) • Membranes were prepared from CHO cells stably transfected with the human motilin receptor and utilized at a quantity of 1.5 μg/assay point. Final Test Concentrations (N=11) for Compounds: […] Data are analyzed by GraphPad™ Prism (GraphPad Software, San Diego, Calif.) using a variable slope non-linear regression analysis. […]
pKi: −log10 of the molar value.
Recorded pKi, one value per entry.

CC(C)C1NC(=O)C(Cc2cccc3ccccc23)NCCOc2ccccc2CCCNC(=O)C(CO)NC1=O (stereo not drawn)	6.00 to 7.00
CC(C)C1NC(=O)C(Cc2ccc(O)cc2)NCCOc2ccccc2C=CCNC(=O)C(Cc2ccc(O)cc2)NC1=O (stereo not drawn)	6.00 to 7.00
CCCC1NC(=O)C(C(C)C)NC(=O)C(Cc2ccncc2)NCCOc2ccccc2CCCNC1=O (stereo not drawn)	6.00 to 7.00
CCC[C@@H]1NC(=O)[C@@H](C(C)C)NC(=O)[C@@H](Cc2ccccc2)NCCOc2ccccc2/C=C/CNC1=O	7.00 to 9.00
CCC[C@@H]1NC(=O)[C@@H](C(C)C)NC(=O)[C@@H](Cc2ccc(OC)c(OC)c2)NCCOc2ccccc2CCCNC1=O	7.00 to 9.00

// lookup pKi for CCCC1NC(=O)C(C(C)C)NC(=O)C(Cc2cccnc2)NCCOc2ccccc2CCCNC1=O (stereo not drawn)
6.00 to 7.00

Now the same for CCCC1NC(=O)C(C(C)C)NC(=O)C(CCc2ccccc2)NCCOc2ccccc2CCCNC1=O (stereo not drawn)
5.00 to 6.00

Another: CCCCC1NC(=O)C(Cc2ccc(O)cc2)NCCOc2ccccc2C=CCNC(=O)C(CCC)NC1=O (stereo not drawn)
5.00 to 6.00

# iterate: CC(C)C[C@@H]1NC(=O)[C@@H](C(C)C)NC(=O)[C@@H](Cc2ccc3ccccc3c2)NCCOc2ccccc2/C=C/CNC1=O
7.00 to 9.00

* * *

Ki values, listed per item
ASSAYED_TARGET: human motilin receptor (Homo sapiens)
PROCEDURE_TEXT: Competitive radioligand binding assay (Method B1)
Parameters: purchased PerkinElmer 6110544; host or cells: CHO cells, stably transfected (membranes)
ASSAY_CONTEXT: Radioligand competitive binding assay, Method B1; values reported as ranges; read-out: Ki (binding activity)

Examples with answers:
CC(C)C1NC(=O)C(Cc2ccc(O)cc2)NCCOc2ccccc2C=CCNC(=O)C(CCCCN)NC1=O (stereo not drawn)	100 to 1000 nM
CC(C)CC1NC(=O)C(C(C)C)NC(=O)C(Cc2cccs2)NCCOc2ccccc2CCCNC1=O (stereo not drawn)	100 to 1000 nM
CCC[C@@H]1NC(=O)[C@@H](C(C)C)NC(=O)[C@@H](Cc2ccc(OC)cc2)NCCOc2ccccc2CCCNC1=O	1 to 100 nM
CC1NC(=O)C(C(C)C)NC(=O)C(Cc2ccc(O)cc2)NCCOc2ccccc2C=CCNC1=O (stereo not drawn)	1000 to 10000 nM
CCC[C@@H]1NC(=O)[C@@H](C(C)C)NC(=O)[C@@H](Cc2cccc3ccccc23)NCCOc2ccccc2CCCNC1=O	1 to 100 nM

Pending compound:
I have this compound here, CCC[C@@H]1NC(=O)[C@@H](C(C)C)NC(=O)[C@@H](Cc2cccc(C)c2)NCCOc2ccccc2CCCNC1=O , and I need its recorded Ki.
1 to 100 nM

* * *

ASSAYED_TARGET: human motilin receptor (Homo sapiens)
PROCEDURE_TEXT: Competitive radioligand binding assay (Method B1)
Parameters: purchased PerkinElmer 6110544; host or cells: CHO cells, stably transfected (membranes)
ASSAY_CONTEXT: Radioligand competitive binding assay, Method B1; values reported as ranges; read-out: Ki (binding activity)
Recorded Ki values for a group of molecules are listed next.

Answered cases to consult:
CC(C)C1NC(=O)C(Cc2ccc(O)cc2)NCCOc2ccccc2C=CCNC(=O)C(Cc2ccc3ccccc3c2)NC1=O (stereo not drawn)	100 to 1000 nM
CC(C)C1NC(=O)C(Cc2ccc(O)cc2)NCCOc2ccccc2CCCNC(=O)C(CCN)NC1=O (stereo not drawn)	100 to 1000 nM
CC(C)CC1NC(=O)C(C(C)C)NC(=O)C(Cc2ccccc2)NCCOc2ccccc2C=CCNC1=O (stereo not drawn)	100 to 1000 nM

Tell me the measured Ki of CC(C)C1NC(=O)C(Cc2cccc3ccccc23)NCCOc2ccccc2CCCNC(=O)C(CN)NC1=O (stereo not drawn) , please.
100 to 1000 nM

Now consider CC(C)C[C@@H]1NC(=O)[C@@H](C(C)C)NC(=O)[C@@H](Cc2ccc(O)cc2)NCCOc2ccccc2/C=C/CNC1=O and answer again.
1 to 100 nM

What do you have for CCC[C@@H]1NC(=O)[C@@H](C(C)C)NC(=O)[C@@H](Cc2cccc(Cl)c2)NCCOc2ccccc2CCCNC1=O ?
1 to 100 nM
